Reference source: patent US20210261671A1

Molecular target: T1, human FLT3 protein (human, UniProt P36888 27-541, limits assumed)
T1 construct: protein coated in the screening ELISA; also called ELISA FLT3
Experiment: colorimetric ELISA, periplasmic extract
TRUE if ELISA FLT3 (absorbance) is below 2 absorbance. FALSE if not; exact matches included in FALSE.

>  <binder>
FLL143 (VHH, llama anti-FLT3 variable domain; E. coli periplasmic extract) VHH: QVQLQESGGGLVQAGGSLRLSCAVSGRTFSGFGTGWFRQAPGKEREFVAAISWVGGRTHYADSVKGRFTISRDNAKNTVYLQMNSLKPEDTAVYYCAAQVARAYDGNWYSGGDYWGQGTQVTVSS

>  <assigned.label>
FALSE

$$$$
>  <binder>
FLL158 (VHH, llama anti-FLT3 variable domain; E. coli periplasmic extract) VHH: QVQLQESGGGLVQPGGSLRLSCAASGSTFGRNYIDWYRQAPGKQREWVAQITSGGNTHYEPSLKGRFTISRDNAKNTAYLQMNSLKPEDTAVYYCRILDYWGQGTQVTVSS

>  <assigned.label>
FALSE

$$$$
>  <binder>
FLL188 (VHH, llama anti-FLT3 variable domain; E. coli periplasmic extract) VHH: QVQLQESGGGLVQAGGSLGLSCAVSGRTFSGFGTGWFRQPPEKEREFVAAISWDGGRTHYADSVKGRFTISRDNAKNTVFLQMNSLKPEDTAVYYCAAQVARAYDSRWYSGGDYWGQGTQVTVSS

>  <assigned.label>
FALSE

$$$$
>  <binder>
FLL75 (VHH, llama anti-FLT3 variable domain; E. coli periplasmic extract) VHH: QVQLQESGGGLVQAGGSLRLSCAVSGRTFSGFGTGWFRQAPGKEREFVAAISWSGGTTHYADSVKGRFTISRDNAKNTVNLVYLQMNDLRPEDTAVYYCAGQVARAYDSNWYSRGDYWGQGTQVTVSS

>  <assigned.label>
FALSE

$$$$
>  <binder>
FLL101 (VHH, llama anti-FLT3 variable domain; E. coli periplasmic extract) VHH: QVQLQESGGGLVQAGGSLRLSCAASGVTFSINYIDWYRQAPGKQREWVAQITRDSNSFYADSVKGRFAISRDNAKNTVYLQMNNLKPEDTAVYYCRVLSYWGQGTQVTVSS

>  <assigned.label>
TRUE

$$$$

Criterion: ELISA FLT3 (absorbance) strictly below 2 absorbance. Is it met by FLL146 (VHH, llama anti-FLT3 variable domain; E. coli periplasmic extract) VHH: QVQLQESGGGLVQAGGSLRLSCAASGVTFSINYIDWYRQAPGKQREWVAQITRDDTSFYADSVKGRFAISRDNAKNTVYLQMNNLRPEDTAVYYCRLLSFWGQGTQVTVSS ? TRUE
